# Test system: MDA-468 human breast cancer cells
# assay-overview: MDA-468 cell proliferation, tetrazolium dye
# Assay type: cell-based
# condition-parameters: human breast cancer cell proliferation, 48 hours
assay-endpoint: MDA PROLIF

Before answering, review these 5 worked examples.
{"molecule": "CC(Cc1ccc(O)c(O)c1)C(C)Cc1ccc(O)c(O)c1 (stereo not shown)", "MDA PROLIF": "↓"}
{"molecule": "OCCOCCN1CCN(C(c2ccccc2)c2ccc(Cl)cc2)CC1 (stereo not shown) [hydroxyzine]", "MDA PROLIF": "NE"}
{"molecule": "CC(NCCC(c1ccccc1)c1ccccc1)c1ccccc1 (stereo not shown)", "MDA PROLIF": "↓"}
{"molecule": "COc1cc(/C=C/C(=O)CC(=O)/C=C/c2ccc(O)c(OC)c2)ccc1O", "MDA PROLIF": "NE"}
{"molecule": "CN1CCN2c3ccccc3Cc3ccccc3C2C1 (stereo not shown)", "MDA PROLIF": "NE"}

Form field, MDA PROLIF with MDA-468 human breast cancer cells, item CN1CCN(C(c2ccccc2)c2ccc(Cl)cc2)CC1 (stereo not shown) : ↓

Test item CC(C)COCC(CN(Cc1ccccc1)c1ccccc1)N1CCCC1 (stereo not shown) ; MDA-468 human breast cancer cells; reported MDA PROLIF was ↓

* * *

# Test system: MDA-468 human breast cancer cells
# assay-overview: MDA-468 cell proliferation, tetrazolium dye
# Format: cell-based
# condition-parameters: human breast cancer cell proliferation, 48 hours
assay-endpoint: MDA PROLIF

Worked cases, answers included:
{"compound": "Cc1cccc(C)c1NC(=O)CN1CCN(CCCC(c2ccc(F)cc2)c2ccc(F)cc2)CC1 [lidoflazine]", "MDA PROLIF": "(↓)"}
{"compound": "O=C(O)c1cccnc1Nc1cccc(C(F)(F)F)c1 [niflumic acid]", "MDA PROLIF": "NE"}
{"compound": "OCCN1CCN(CCCN2c3ccccc3Sc3ccc(C(F)(F)F)cc32)CC1 [fluphenazine]", "MDA PROLIF": "↓"}
{"compound": "Fc1ccc(C(c2ccc(F)cc2)N2CCN(C/C=C/c3ccccc3)CC2)cc1 [flunarizine]", "MDA PROLIF": "NE"}
{"compound": "Cc1cccc(CN2CCN(C(c3ccccc3)c3ccc(Cl)cc3)CC2)c1 (stereo not drawn) [meclizine]", "MDA PROLIF": "NE"}
{"compound": "CCN(CC)C(=O)N1CCN(C)CC1 [diethylcarbamazine]", "MDA PROLIF": "NE"}

Let me check: C(=C\c1ccccc1)/CN1CCN(C(c2ccccc2)c2ccccc2)CC1 [cinnarizine] , system MDA-468 human breast cancer cells, measured MDA PROLIF is NE

Considering COc1cc(C(O)C(O)CO)ccc1O (stereo not drawn) [3-methoxy, 4-hydroxyphenylglycerol] , its MDA PROLIF with MDA-468 human breast cancer cells was recorded as NE

The reported MDA-468 human breast cancer cells MDA PROLIF of Cc1nc(C)c(C)nc1C [tetranethylpyrazine] is NE
